Tested on: BHT-101 (Thyroid Gland Carcinoma);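 note: after 72 h of two-drug dosing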
ASSAY TEXT: Bliss excess, mean over the matrix (fraction); higher = more synergy
PROPERTY NAME: Bliss excess
Answers are plain numbers.

Illustrative cases are given below, each with its answer.
compound="C[C@@H](c1ccc2nccn2c1)n1nnc2ncc(-c3cnn(C)c3)nc21 [Savolitinib] + Cc1c2c(nn1C)CSCc1cc(n(C)n1)CSc1cc(c3ccccc3c1)OCCCc1c(C(=O)O)n(C)c3c-2c(Cl)ccc13 [AZD5991] (first compound max 1 µM, 7x7, partner max 1 µM)" value_reported=-0.0307
compound="Cn1cnc2c(F)c(Nc3ccc(Br)cc3Cl)c(C(=O)NOCCO)cc21 [Selumetinib] + CCN(CCO)CCCOc1ccc2c(Nc3cc(CC(=O)Nc4cccc(F)c4)[nH]n3)ncnc2c1 [AZD2811] (first compound max 10 µM, 7x7, partner max 1 µM)" value_reported=-0.0267

For each of the items listed, what is its Bliss excess?
1. NC1(C(=O)N[C@@H](CCO)c2ccc(Cl)cc2)CCN(c2ncnc3[nH]ccc23)CC1 [Capivasertib] + CC(C)n1c(=O)n(C)c2cnc3cc(F)c(-c4ccc(OCCCN5CCCCC5)nc4)cc3c21 [AZD1390] (first compound max 10 µM, 7x7, partner max 0.3 µM)
2. NC1(C(=O)N[C@@H](CCO)c2ccc(Cl)cc2)CCN(c2ncnc3[nH]ccc23)CC1 [Capivasertib] + CCN(CCO)CCCOc1ccc2c(Nc3cc(CC(=O)Nc4cccc(F)c4)[nH]n3)ncnc2c1 [AZD2811] (first compound max 10 µM, 7x7, partner max 1 µM)
3. CC1(C)CCC(CN2CCN(c3ccc(C(=O)NS(=O)(=O)c4ccc(NCC5CCOCC5)c([N+](=O)[O-])c4)c(Oc4cnc5[nH]ccc5c4)c3)CC2)=C(c2ccc(Cl)cc2)C1 [Venetoclax] + C1CN(CCC1(C(=O)N[C@@H](CCO)C2=CC=C(C=C2)Cl)N)C3=NC=NC4=C3C=CN4 [Capivasertib] (first compound max 1 µM, 7x7, partner max 3 µM)
4. Cc1c2c(nn1C)CSCc1cc(n(C)n1)CSc1cc(c3ccccc3c1)OCCCc1c(C(=O)O)n(C)c3c-2c(Cl)ccc13 [AZD5991] + Cc1cc2ncnn2cc1Nc1ncc2c(n1)n(C1CCOCC1)c(=O)n2C [AZD7648] (first compound max 1 µM, 7x7, partner max 10 µM)
5. COc1nnc2ccc(N3CCC(c4ccc(OCCN5CCN(C)C(=O)[C@H]5C)cc4)CC3)nn12 [AZD5153] + Cn1cnc2c(F)c(Nc3ccc(Br)cc3Cl)c(C(=O)NOCCO)cc21 [Selumetinib] (first compound max 1 µM, 7x7, partner max 10 µM)

Completion:
1: -0.0197; 2: -0.0124; 3: -0.0312; 4: -0.0308; 5: -0.0593

* * *

Tested on: C-33-A (Cervical Carcinoma)
ASSAY TEXT: combination Emax (second highest fraction inhibited in the dose matrix, 72 h); higher = more inhibition; extreme values may be limits of the assay
What combination Emax was measured for each of the following?
Give bare numbers.

molecule="CN(CCO)CC[C@H](CSc1ccccc1)Nc1ccc(S(=O)(=O)NC(=O)c2ccc(N3CCC([C@@H](O)c4ccccc4-c4ccc(Cl)cc4)CC3)cc2)cc1S(=O)(=O)C(F)(F)F [AZD4320] + C[C@@H]1COCCN1C2=NC(=NC(=C2)C3(CC3)[S@](=N)(=O)C)C4=C5C=CNC5=NC=C4 [AZD6738] (first compound max 1 µM, 7x7, partner max 10 µM)" property_name="combination Emax" value_reported=0.928

Measured combination Emax of CCc1c2c(nc3ccc(O)cc13)-c1cc3c(c(=O)n1C2)COC(=O)[C@]3(O)CC [SN-38] + CN(C)CCCOc1ccc(-c2ccc3ncc4c(c3c2)n(C2CCOCC2)c(=O)n4C)cn1 [AZD0156] (first compound max 0.3 µM, 7x7, partner max 1 µM) : 0.802

Value source: the supplement of paper PMC11061612
